For Histamine H1 receptor (Homo sapiens, UniProt P35367), measured AC50 is reported for the entries below.

input: Test system Histamine H1 receptor (Homo sapiens, UniProt P35367); read-out AC50; what value for COc1ccc(C(Cl)=C(c2ccc(OC)cc2)c2ccc(OC)cc2)cc1 ?; note: assay procedure not described here
output: > 30 µM

input: Continue with CC(=O)SCC(Cc1ccccc1)C(=O)NCC(=O)OCc1ccccc1 (stereo not given)
output: > 30 µM

input: Continue with COc1cc(C(=O)NCc2ccc(OCCN(C)C)cc2)cc(OC)c1OC [TRIMETHOBENZAMIDE]
output: > 30 µM

input: Continue with C[C@H](Cn1cnc2c(N)ncnc21)OCP(=O)(O)O [TENOFOVIR ANHYDROUS]
output: > 30 µM

input: Continue with CCN(CC)C(C)C(=O)c1ccccc1 (stereo not given)
output: 12 µM
